Reference for the values: the METLIN SMRT retention time set (Domingo-Almenara et al. 2019)

# assay_explanation: gradient 5% acetonitrile 3 min, to 50% in 2 min, to 85% in 15 min, held 3 min, 100 µL/min
# measurement_setup: column: Zorbax Extend-C18 2.1 x 50 mm; eluents: water / acetonitrile, 0.1% formic acid
measurement_name: RP-LC retention time (s)

> print(dat)
                                   compound  test.result
1  O=C(CN1CCN(C(=O)Nc2ccc(F)cc2)CC1=O)N1CCCC1          615
2  COc1ccc(-c2nc3cnccn3c2NCCC(=O)Nc2ccc3c(c2)OCCO3)cc1          676
3  Cc1cc2[nH]c(C(=O)Nc3ccccc3Br)c(CN3CCOCC3)c2s1          708
4  CCCNc1cc(N2CCCC(CCC(=O)N3CCN(c4ccccc4)CC3)C2)ncn1 (stereo not drawn)          719
5  CCOc1ccc(NC(=O)c2cnc(-c3ccc(F)cc3)nc2-c2ccncc2)cc1          935
6  O=C(CCC1CCN(c2cc(NC3CC3)ncn2)CC1)NCc1ccc(F)cc1Cl          689
7  O=C(c1ccc(F)c(Cl)c1)N1CCC2(CC1)N=C(c1ccccc1)NO2          800
8  COc1ccc(CCC(=O)N2CCC(C(=O)NCCc3csc(-c4cccs4)n3)CC2)cc1          826
